Recorded MCC by entry
protocol.notes: Cytotoxicity against human HeLa cells assessed as morphological changes by microscopic analysis
Assay type: cell-based

// solved cases for MCC follow
Enquiry: Form field: reported MCC of Nc1nc2c(sc3ncn([C@H]4C[C@H](O)[C@@H](CO)O4)c32)c(=O)[nH]1
Return: 100 µM

Enquiry: Similarly, NC(=O)c1ncn([C@@H]2O[C@H](CO)[C@@H](O)[C@H]2O)n1 ?
Return: > 250 µM

# input for lookup
Enquiry: Entry under review: Nc1ncnc2c1sc1ncn([C@H]3C[C@H](O)[C@@H](CO)O3)c12 . Reported MCC?
Return: > 100 µM

----------
Test system: Vesicular stomatitis virus
protocol.notes: Antiviral activity against Vesicular stomatitis virus infected in HEL cells assessed as inhibition of virus-induced cytopathogenicity
Format: functional, organism-based
pEC50: −log10 of the molar value.
measure.name: pEC50

Enquiry: Look up pEC50 for this molecule: Nc1nc2c(sc3ncn([C@H]4C[C@H](O)[C@@H](CO)O4)c32)c(=O)[nH]1
Return: < 4.00

Please find the next molecule below.
Enquiry: I am curious: what pEC50 value has been reported for Nc1ncnc2c1sc1ncn([C@H]3C[C@H](O)[C@@H](CO)O3)c12 ?
Return: < 4.70

----------
Listed here: items and their measured MCC.
protocol.notes: Cytotoxicity against african green monkey Vero cells assessed as morphological changes by microscopic analysis
Format: cell-based
assay.context: chlorocebus sabaeus

The following molecules have reported results that may help.
Enquiry: Could you tell me which MCC is on file for NC(=O)c1ncn([C@@H]2O[C@H](CO)[C@@H](O)[C@H]2O)n1 [RIBAVIRIN] ?
Return: > 250 µM

Enquiry: // repeat for Nc1nc2c(sc3ncn([C@H]4C[C@H](O)[C@@H](CO)O4)c32)c(=O)[nH]1 and report
Return: 100 µM

---
Enquiry: Request the reported MCC associated with Nc1ncnc2c1sc1ncn([C@H]3C[C@H](O)[C@@H](CO)O3)c12
Return: > 100 µM

----------
Test system: Human alphaherpesvirus 2
protocol.notes: Antiviral activity against Herpes simplex virus 2 G infected in HEL cells assessed as inhibition of virus-induced cytopathogenicity
Type: functional, organism-based
assay.context: Human alphaherpesvirus 2, strain G
pEC50: −log10 of the molar value.
measure.name: pEC50

// worked examples, pEC50 included
Enquiry: Suppose we examine the compound Nc1ncnc2c1sc1ncn([C@H]3C[C@H](O)[C@@H](CO)O3)c12 ; what pEC50 value has been reported?
Return: < 4.70

Enquiry: Proceed to Nc1nc2c(sc3ncn([C@H]4C[C@H](O)[C@@H](CO)O4)c32)c(=O)[nH]1
Return: < 4.00

Attention now turns to another entry.
Enquiry: What value of pEC50 has been recorded for this entry: NC(=O)c1ncn([C@@H]2O[C@H](CO)[C@@H](O)[C@H]2O)n1 [RIBAVIRIN]
Return: < 3.60

----------
# pEC50 values compiled below
Test system: Respiratory syncytial virus
protocol.notes: Antiviral activity against Respiratory syncytial virus infected in HeLa cells
Type: functional, organism-based
assay.context: human respiratory syncytial virus
pEC50: −log10 of the molar value.

Enquiry: Item Nc1nc2c(sc3ncn([C@H]4C[C@H](O)[C@@H](CO)O4)c32)c(=O)[nH]1 with Respiratory syncytial virus - pEC50?
Return: < 4.00

Please look at the following molecule next.
Enquiry: API: value(readout=pEC50, system=Respiratory syncytial virus) for record Nc1ncnc2c1sc1ncn([C@H]3C[C@H](O)[C@@H](CO)O3)c12
Return: < 4.00

----------
Documented EC50 across a set of compounds
System: Influenza B virus
protocol.notes: Antiviral activity against influenza B virus infected in MDCK cells assessed as inhibition of virus-induced cytopathogenicity
Assay type: functional, organism-based

Example entries and their recorded answers appear below.
Enquiry: Consider the compound NC(=O)c1ncn([C@@H]2O[C@H](CO)[C@@H](O)[C@H]2O)n1 and give its measured EC50.
Return: 4.5 µM

Enquiry: Lookup Nc1nc2c(sc3ncn([C@H]4C[C@H](O)[C@@H](CO)O4)c32)c(=O)[nH]1
Return: > 0.16 µM

Next:
Enquiry: Returns the measured EC50 for the input compound. Input: Nc1ncnc2c1sc1ncn([C@H]3C[C@H](O)[C@@H](CO)O3)c12
Return: > 4 µM

----------
protocol.notes: Cytotoxicity against MDCK cells assessed as morphological changes by microscopic analysis
Type: cell-based, Canis lupus familiaris
assay.context: dog
measure.name: MCC
Field note: include the unit after the figure.

Enquiry: # lookup: MCC of Nc1ncnc2c1sc1ncn([C@H]3C[C@H](O)[C@@H](CO)O3)c12
Return: 20 µM

Now, please, on to the next molecule.
Enquiry: Value lookup for MCC; key = Nc1nc2c(sc3ncn([C@H]4C[C@H](O)[C@@H](CO)O4)c32)c(=O)[nH]1
Return: 0.8 µM

----------
protocol.notes: Cytotoxicity against HEL cells assessed as morphological changes by microscopic analysis
Type: cell-based
assay.context: human
measure.name: MCC

Enquiry: Name the reported MCC value associated with the compound NC(=O)c1ncn([C@@H]2O[C@H](CO)[C@@H](O)[C@H]2O)n1
Return: > 250 µM

***
Enquiry: MCC lookup needed for Nc1nc2c(sc3ncn([C@H]4C[C@H](O)[C@@H](CO)O4)c32)c(=O)[nH]1 , thanks.
Return: > 100 µM

Enquiry: And for Nc1ncnc2c1sc1ncn([C@H]3C[C@H](O)[C@@H](CO)O3)c12 ?
Return: ≥ 20 µM

----------
Test system: Coxsackievirus B4
protocol.notes: Antiviral activity against Coxsackie virus B4 infected in african green monkey Vero cells assessed as inhibition of virus-induced cytopathogenicity
Format: functional, organism-based
assay.context: Enterovirus B
pEC50: −log10 of the molar value.
Reported pEC50 by item:

Enquiry: So what does the record say about pEC50 for Nc1nc2c(sc3ncn([C@H]4C[C@H](O)[C@@H](CO)O4)c32)c(=O)[nH]1 ?
Return: < 4.00

Enquiry: What about this compound? Nc1ncnc2c1sc1ncn([C@H]3C[C@H](O)[C@@H](CO)O3)c12
Return: < 4.00

Enquiry: // next record NC(=O)c1ncn([C@@H]2O[C@H](CO)[C@@H](O)[C@H]2O)n1 [RIBAVIRIN]
Return: < 3.60
